B1: LINE1-mini (parent)
chain: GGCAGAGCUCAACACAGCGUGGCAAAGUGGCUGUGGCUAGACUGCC

# Variants of: B1
# assayText: self-cleavage, relative activity (ratio to wild type); higher = more cleavage; in vitro, sequencing; the parent is a self-cleaving ribozyme
I would appreciate it if you labelled entries Condition met when self-cleavage is 0.08 or higher, otherwise Condition not met.

variantId | discreteLabel
G1U U28A | Condition met
G2A U9A | Condition met
C18A G27A | Condition met
A24U U38G | Condition not met
C3G A24G | Condition met
C37U U38C | Condition not met
U20A U38G | Condition not met
C8A G27U | Condition met
C18U G29C | Condition met
G5C G27U | Condition met
A26U G30A | Condition met
A14U U20A | Condition met
G2C G7A | Condition not met
A11C G17U | Condition not met
C3U G44C | Condition met
C13A A25U | Condition met
G30U C46A | Condition met
A11C G30C | Condition not met
A4U C10G | Condition not met
G29U U34G | Condition met
A4G G30A | Condition met
C3G C23A | Condition met
G7C G17U | Condition met
G7C U43C | Condition met
U38G C45A | Condition not met
A12G A24G | Condition not met
A11U A39U | Condition not met
U38G C45G | Condition not met
C3U A26G | Condition met
A4U G44C | Condition met
G5C G44U | Condition met
